# test-system: P70S6K (T412E mutant) (Homo sapiens, UniProt P23443, T412E)
# Sequence (P23443 1-421 T412E limits assumed): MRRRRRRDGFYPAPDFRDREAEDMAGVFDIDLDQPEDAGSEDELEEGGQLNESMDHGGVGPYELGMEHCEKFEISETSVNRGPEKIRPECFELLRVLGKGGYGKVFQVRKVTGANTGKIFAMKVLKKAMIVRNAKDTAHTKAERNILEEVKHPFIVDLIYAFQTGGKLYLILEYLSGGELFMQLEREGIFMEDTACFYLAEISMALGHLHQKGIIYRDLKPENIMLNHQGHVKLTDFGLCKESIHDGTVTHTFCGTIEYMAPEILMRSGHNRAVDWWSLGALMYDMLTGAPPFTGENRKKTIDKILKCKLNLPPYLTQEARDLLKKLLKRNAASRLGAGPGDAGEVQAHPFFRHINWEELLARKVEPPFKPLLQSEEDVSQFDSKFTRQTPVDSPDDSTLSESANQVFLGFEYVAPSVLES
# procedure-text: p70S6K Enzyme Assay
# assay-conditions: 24 μM ATP, 90 min at 25° C., Caliper mobility shift
endpoint: IC50 (nM)

Below, 3 compounds whose answers are already recorded.
NC(=O)c1cccc2c(N[C@H](CN3CCC3)c3cc(F)ccc3F)ncnc12    5.3
N#Cc1cc([C@@H](CN2CCC2)Nc2ncnc3c(C(N)=O)cccc23)ccc1F    3.3
NC(=O)c1cccc2c(N[C@H](CN3CCC3)c3ccc(C(F)(F)F)c(Cl)c3)ncnc12    2.3

P: CC(C)Oc1ccc([C@@H](CN2CCC2)Nc2ncnc3c(C(N)=O)cccc23)cc1
Q: NC(=O)c1cccc2c(N[C@H](CN3CCC3)c3ccc(Cl)c(F)c3)ncnc12
Which has the higher IC50, P or Q ? Your choice should be expressed through its label.
P
(P: 400 nM, Q: 1.6 nM)

a: NC(=O)c1cccc2c(N[C@H](CN3CCC3)c3cc(F)c(F)c(F)c3)ncnc12
b: Cc1cc([C@@H](CN2CCC2)Nc2ncnc3c(C(N)=O)cccc23)ccc1F
c: NC(=O)c1cccc2c(N[C@H](CN3CC(O)C3)c3ccc(F)c(F)c3)ncnc12
Kindly order the items shown according to IC50, from the highest value down. Give the labels in the order requested.
c, a, b
(c: 4.6 nM, a: 2.8 nM, b: 1.6 nM)
